- Experimental System: Angiotensin II receptor (Rattus norvegicus, UniProt P29089+P25095+P35351)
- Experiment Description: Concentration required for 50% inhibition of binding against Angiotensin II receptor in the rat adrenal cortex tissue
- Assay type: tissue-based
Attribute Measured: IC50 (µM)
Provide only the numeric value, understood in µM.

Some compounds with recorded IC50:
> print(dat)
                                   compound  quantitative.result
1  CCCC1N(Cc2ccc(-c3ccccc3-c3nn[nH]n3)cc2)C(=O)c2ccccc2N1Cc1ccccc1 (stereo not given)                  100
2  CCCCC1N(Cc2ccc(-c3ccccc3-c3nn[nH]n3)cc2)C(=O)c2cc(C(C)C)ccc2N1C (stereo not given)                 0.65
3  CCCCC1Nc2ccc(C(C)C)cc2C(=O)N1Cc1ccc(-c2ccccc2-c2nn[nH]n2)cc1 (stereo not given)                 0.09
4  CCCCC1Nc2ccc(Cc3ccccc3)cc2C(=O)N1Cc1ccc(-c2ccccc2-c2nn[nH]n2)cc1 (stereo not given)                  3.7
5  CCC1Nc2ccc(C)cc2C(=O)N1Cc1ccc(-c2ccccc2-c2nn[nH]n2)cc1 (stereo not given)                   20

So what IC50 did CCCC1N(Cc2ccc(-c3ccccc3-c3nn[nH]n3)cc2)C(=O)c2ccccc2N1CC (stereo not given) get with Angiotensin II receptor (Rattus norvegicus, UniProt P29089+P25095+P35351)?
7.5

So what IC50 did CCCCC1Nc2ccc(C(=O)OC)cc2C(=O)N1Cc1ccc(-c2ccccc2-c2nn[nH]n2)cc1 (stereo not given) get with Angiotensin II receptor (Rattus norvegicus, UniProt P29089+P25095+P35351)?
4.1

====

- Experimental System: Angiotensin II receptor (Rattus norvegicus, UniProt P29089+P25095+P35351)
- Experiment Description: Concentration required for 50% inhibition of binding against Angiotensin II receptor in the rat adrenal cortex tissue
- Format: tissue-based
Attribute Measured: IC50 (µM)
Provide only the numeric value, understood in µM.

Some compounds with recorded IC50:
> print(dat)
                                   compound  quantitative.result
1  CCC1Nc2ccccc2C(=O)N1Cc1ccc(-c2ccccc2-c2nn[nH]n2)cc1 (stereo not drawn)                   27
2  CCCCC1Nc2ccccc2C(=O)N1Cc1ccc(-c2ccccc2-c2nn[nH]n2)cc1 (stereo not drawn)                   14

Shift focus to the following entry.
Fill blank: measured IC50 of the compound CCCC1Nc2ccc(C(C)C)cc2C(=O)N1Cc1ccc(-c2ccccc2-c2nn[nH]n2)cc1 (stereo not drawn) is ____.
12
